subject-of-test: Heat shock factor protein 1 (Mus musculus)
Sequence (P38532 whole entry): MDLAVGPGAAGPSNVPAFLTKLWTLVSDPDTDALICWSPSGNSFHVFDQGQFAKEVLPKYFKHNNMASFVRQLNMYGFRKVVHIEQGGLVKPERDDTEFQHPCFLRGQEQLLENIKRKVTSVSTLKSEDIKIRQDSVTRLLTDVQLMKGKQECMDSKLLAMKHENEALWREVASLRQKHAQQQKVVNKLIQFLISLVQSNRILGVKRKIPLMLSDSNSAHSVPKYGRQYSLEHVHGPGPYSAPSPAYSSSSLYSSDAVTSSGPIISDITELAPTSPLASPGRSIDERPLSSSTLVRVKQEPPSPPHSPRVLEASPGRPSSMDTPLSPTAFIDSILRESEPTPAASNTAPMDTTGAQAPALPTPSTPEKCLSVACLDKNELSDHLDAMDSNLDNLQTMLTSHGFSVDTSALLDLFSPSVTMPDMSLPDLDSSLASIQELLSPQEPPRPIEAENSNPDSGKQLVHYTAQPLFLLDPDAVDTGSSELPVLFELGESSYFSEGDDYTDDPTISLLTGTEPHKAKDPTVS
assay-overview: decrease of HSF1-responsive luciferase luminescence – cell-based, NIH3T3, dose retest, confirmation (AID 2382);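 further: NIH3T3 fibroblasts with HSF1-driven luciferase reporter stressed by proteasome inhibitor MG132; luminescence from HSF1-driven luciferase expression after 8 hours of MG132 stress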
Assay type: functional
The source made the active and inactive calls. No stated cut-off is given here; in the data, actives have a measured EC50 and inactives only a lower limit.
The following compounds are listed with their measured EC50 values.

{"compound": "Cc1cccc(NC(=O)Cn2c(=O)n(Cc3ccco3)c(=N)c3c4c(sc32)COC(C)(C)C4)c1", "EC50": "> 195 µM (not active)"}
{"compound": "CC(C)CCNC(=O)C1CCCN1C(=O)NC1CCCCC1 (stereo unspecified)", "EC50": "> 195 µM (not active)"}

Please give the documented EC50 of `O=C1SCC(c2ccccc2)=NN1Cc1ccccc1`
> 195 µM (not active)

Give the reported EC50 for this compound. `CC(C)Cc1csc(NC(=O)c2ccc(F)cc2)c1C(=O)O`
9.87 µM (active)

Determine from records and report EC50 for `CN(C)CCNC(=O)c1cc2c(s1)-c1ccc(Cl)cc1SC2`
13.5 µM (active)

Item `Cc1ccc(C(=N)NOC(=O)CN(C)S(=O)(=O)c2ccc(C)cc2)cc1` : provide EC50
> 195 µM (not active)

Provide measured EC50 value, entry: `Cc1ccccc1Cn1ccc(NC(=O)c2cnn3c(C(F)(F)F)cc(-c4ccco4)nc23)n1`
19.1 µM (active)

Answer with the recorded EC50 for the compound listed here: `COc1ccc(CNC(=O)c2cnc3scc(C)n3c2=O)cc1`
> 195 µM (not active)

Report EC50 for `COc1cccc(N2CCN(Cc3nnnn3C3CCCCC3)CC2)c1`
> 195 µM (not active)

Query EC50 for COc1cccc(C2C(C(=O)c3cc4ccccc4o3)=C(O)C(=O)N2c2cc(C)on2)c1 (stereo unspecified)
> 195 µM (not active)

Specify EC50 for `CCNC(=O)CNC(=O)c1nn(Cc2ccccc2)c(=O)c2ccccc12` and stop.
> 195 µM (not active)

All values here come from ChEMBL document CHEMBL1201862.
